Target: GORASP1, Q9BQQ3
Sequence (Q9BQQ3 1-208): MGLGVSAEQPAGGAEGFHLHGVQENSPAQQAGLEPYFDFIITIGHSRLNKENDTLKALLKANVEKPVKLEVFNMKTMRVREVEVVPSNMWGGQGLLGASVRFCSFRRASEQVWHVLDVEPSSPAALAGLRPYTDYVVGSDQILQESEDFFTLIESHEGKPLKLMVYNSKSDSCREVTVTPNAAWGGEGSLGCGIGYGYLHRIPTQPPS
Test: holdup assay
Design: key: below the threshold = too weak to quantify, mostly under pKd 3.1 to 4
Details: plain residues with an end cap or a label only (N-terminal biotin on a linker: ado-ado)
quantity_measured: pKd

Observe how each entry below is paired with its result.
RSPVATATSC [DUSP5, Q16690] ... below the threshold
QKNKDREYYV [NRXN3, Q9HDB5] ... 4.33
IKLETKKTKL [SLC15A2, Q16348] ... below the threshold
KKTPVSRSHL [SLC22A3, O75751] ... below the threshold
GVHSNDHSVV [LPAR1, Q92633] ... 3.48
DYSNLRETDI [ADRA1D, P25100] ... below the threshold
PEKVSNTTVV [IGSF5, Q9NSI5] ... 4.13
KLQNPNQSVV [TYRP1, P17643] ... 3.53
KAEEKPPSKV [SCN4B, Q8IWT1] ... below the threshold
SQPLLVHDDV [KIT, P10721] ... below the threshold

For every item below, please supply its pKd.
1. EAVTVESTSL [SLC22A11, Q9NSA0]
2. DLLGGGSDSI [TNRC6B, Q9UPQ9]
3. STYCDYTIEI [FAM71C, Q8NEG0]
4. PLATCDETSI [SEMA4F, O95754]
5. YAEKRMLTEV [KCNA6, P17658]
6. AHGSTRDQSI [KCNB1, Q14721]
7. ADEMICITTL [CACNA1D, Q01668]

1. below the threshold
2. below the threshold
3. 4.72
4. below the threshold
5. below the threshold
6. below the threshold
7. 4

Batch lookup, pKd per entry.
1. VKQYADVEGF [HNRNPK, P61978;P61978-2]
2. KPDKQEEFYA [SDC3, O75056]
3. TFSRRPKTRV [CD226, Q15762]
4. QLKSGRDSTV [TMEM178A, Q8NBL3]
5. LPPPESESKV [KCNJ9, Q92806]

below the threshold
below the threshold
3.75
below the threshold
below the threshold

Return reported pKd values for all items listed beneath this line.
1. PKSNSSKEYV [CLDN7, O95471]
2. VCMGDHWFDV [PRKN, O60260]
3. NNMAFETTHF [SLC5A12, Q1EHB4]

1: below the threshold; 2: 4.06; 3: below the threshold

Give pKd for all binders that follow.
1. ATKDKKITTV [EXOC4, Q96A65]
2. WAKEKQHTRL [SLC17A1, Q14916]
3. IGHEDLETAV [DGKI, O75912]
4. NTALVESEDL [PALLS, Q8WX93;Q8WX93-1]
5. PLPPEEESWV [GAS2L2, Q8NHY3]
6. MLPANYVEAI [NEB, P20929]
7. PSVYSRSQYV [CLDN8, P56748]

1: 3.76; 2: below the threshold; 3: below the threshold; 4: below the threshold; 5: 4.22; 6: 3.7; 7: 4.55
